Target: T1, APBA2_1, Q99767
T1 sequence (Q99767 563-664, limits assumed, looked up): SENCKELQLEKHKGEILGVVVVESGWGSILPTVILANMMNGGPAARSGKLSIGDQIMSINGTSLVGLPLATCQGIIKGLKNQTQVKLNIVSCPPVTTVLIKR
Assay: holdup assay
Set-up: key: below the threshold = too weak to quantify, mostly under pKd 3.1 to 4
Conditions: plain residues with an end cap or a label only (N-terminal biotin on a linker: ttds)
Assay Readout: pKd

INSERT INTO assay_data (binder, result) VALUES
  ('SRPQRTQTQV [HPV67-E6, A4U7F2]', 'below the threshold'),
  ('VLRLQSETSV [VANGL1, Q8TAA9]', 'below the threshold'),
  ('IYVPEAQTRL [DLGAP4, Q9Y2H0]', 'below the threshold'),
  ('TVASEKESVM [SLC1A5, Q15758]', 'below the threshold'),
  ('IDNDTESTAL [ARHGAP17, Q68EM7]', 'below the threshold'),
  ('GQDSREETQL [KCNT2, Q6UVM3]', 'below the threshold'),
  ('QSARYRDTEL [TJP2, Q9UDY2]', 'below the threshold'),
  ('STLTIFETAL [ABCC4, O15439]', 'below the threshold'),
  ('SSRTRRETQL [HPV16-E6, P03126]', 'below the threshold'),
  ('PKTPPTDTSV [KIR3DL3, Q8N743]', 'below the threshold'),
  ('SVWLRKETRV [CYSLTR2, Q9NS75]', 'below the threshold'),
  ('RSLEEEESQL [GRASP, Q7Z6J2]', 'below the threshold'),
  ('ERKLSSESQV [LRP4, O75096]', 'below the threshold');
